molecular target: Torsin-1A (Homo sapiens); assay: TOR1A wild-type binding on microarray – cell lysate, small-molecule microarray, lysate, 635/667 nm, primary screen (AID 1149); conditions: COS7 hTOR1A-WT lysate, 635 nm fluorescence, higher = more signal
Entries and their composite z-score values follow.
recordedEndpoint: composite z-score

[[record]]
compound = "COC(=O)[C@@]1(Cc2ccc(OC)cc2)[C@H]2c3cc(C(=O)N4CCCC4)n(CCF)c3C[C@H]2CN1C(=O)c1ccccc1"
resultnumber = -0.0089

[[record]]
compound = "COC(=O)[C@]1(Cc2ccccc2CN=[N+]=[N-])N=C(c2ccc(OCCCO)cc2)O[C@@H]1c1ccccc1"
resultnumber = -2.51

[[record]]
compound = "O=C(CS)NCCCCCNC(=O)[C@@H]1C[C@@H]2C(=O)N3CCC[C@H]3C(=O)N2[C@@H]1c1ccc(O)cc1"
resultnumber = 0.99

[[record]]
compound = "COC(=O)c1ccc(OC)c(/C=C\\CC(CCc2ccccc2)OC(=O)c2ccncc2)c1 (centres undefined)"
resultnumber = 0.175


* * *

assay: FRG1 expression reporter modulators in myotubes – cell-based, C2C12 myotubes, firefly/Renilla luciferase, luminescence, FRG1 inhibition for FSHD, primary screen (AID 1084); details: FRG1 promoter luciferase, higher = more signal, called active from +8 up or from −8 down
Where z-score equals or exceeds 0.8, the correct label is TRUE; where it does not, the label is FALSE.

[[record]]
compound = "C[C@]12C(=O)N(CCCO)[C@@H]3C(=O)N(c4ccc(Cl)cc4)CC=CC31O[C@@H]1/C=C\\CCCOC(=O)C12 (some centres not stated)"
label = "TRUE"

[[record]]
compound = "COCC1=C([C@H](O)CCc2ccccc2)[C@H](CO)[C@@H]2C(=O)N(C)C(=O)[C@@H]2C1"
label = "FALSE"

[[record]]
compound = "CN(C)CCCC[C@@H]1NC(=O)[C@H]2C[C@@H](C(=O)NCCCCCCNC(=O)CS)[C@@H](c3ccc(O)cc3)N2C1=O"
label = "TRUE"

[[record]]
compound = "COCC(=C=CC[C@@H](O)c1ccccc1OCCO)C[C@@H](O)c1ccccn1"
label = "FALSE"

[[record]]
compound = "COCCCNC(=O)[C@@]1(Cc2ccccc2)COC(c2ccc(OCCCO)cc2)=N1"
label = "FALSE"

[[record]]
compound = "[N-]=[N+]=Nc1ccccc1[C@H]1OC(c2ccc(OCCCO)cc2)=N[C@@]1(Cc1ccccc1)C(=O)NCc1ccccc1"
label = "FALSE"

[[record]]
compound = "COC(=O)C(CC#Cc1ccc2c(c1)[C@]1(C(=O)N2)[C@H](c2ccc(O)cc2)N2[C@H](c3ccccc3)[C@H](c3ccccc3)OC(=O)[C@H]2[C@@H]1C(=O)O)C(=O)OC"
label = "TRUE"


* * *

assay: S6 kinase pathway phospho-S6 level changes – cell-based, A549, cytoblot, luminescence, serum-stimulated, primary screen (AID 1158); details: 5 h, higher = more signal;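 further: serum-stimulated A549 lung adenocarcinoma cells; signal is phosphorylated S6 detected by cytoblot immunostaining with HRP secondary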
Entries and their z-score values follow.
recordedEndpoint: z-score

[[record]]
compound = "COCCOC(=O)N1C(=O)[C@@]2(c3cc(C#Cc4ccc(OC)cc4)ccc31)[C@H](C(=O)N1CCc3cc(OC)c(OC)cc3C1)[C@H]1C(=O)O[C@H](c3ccccc3)[C@H](c3ccccc3)N1[C@@H]2c1ccc(OCCO)cc1"
result = 0.228

[[record]]
compound = "[N-]=[N+]=NCc1ccccc1[C@H]1OC(c2ccc(OCCCO)cc2)=N[C@@]1(Cc1ccccc1N=[N+]=[N-])C(=O)NCCN1CCOCC1"
result = -0.0338

[[record]]
compound = "COCCCNC(=O)[C@@]1(Cc2ccccc2I)c2ccccc2C(=O)N(Cc2ccccc2Cl)[C@H]1c1ccc(CO)cc1"
result = 0.984

[[record]]
compound = "C=C(/C(=C/C[C@@H](OC(=O)c1ccncc1)c1cccc(OCCO)c1)c1cc(C(=O)OC)ccc1OC)C(C)C"
result = 0.421

[[record]]
compound = "COc1ccc([Si](C)(C)[C@@H]2[C@@H](CC(=O)N(CCO)Cc3ccccc3)O[C@]3(C(=O)N(C)c4c(Br)cc(C)cc43)[C@H]2C)cc1"
result = 0.336

[[record]]
compound = "CCOC(=O)C1=CC[C@@H](c2ccccc2)N(S(=O)(=O)c2ccc(C)cc2)[C@H]1C=C(C)C"
result = -0.459

[[record]]
compound = "C[N+](C)(C)CCCCNC(=O)[C@H]1C[C@H]2C(=O)NCC(=O)N2[C@H]1c1ccc(O)cc1"
result = -0.0248

[[record]]
compound = "CC(C)CCC[C@@H](C)[C@H]1CC[C@@]2(C)C3=C(CC[C@]12C)[C@@]1(C)CC[C@H](OC(=O)c2ccc(N)cc2)C(C)(C)C1CC3 (some centres undefined)"
result = 1.93

[[record]]
compound = "COCCOC(=O)N1C(=O)[C@@]2(c3cc(C#CCNC(N)=O)ccc31)[C@H](C(=O)N1CCCCCCC1)[C@H]1C(=O)O[C@H](c3ccccc3)[C@H](c3ccccc3)N1[C@@H]2c1ccc(OCCO)cc1"
result = 0.437

[[record]]
compound = "COC(=O)[C@]1(Cc2ccccc2CN=[N+]=[N-])N=C(c2ccc(OCCCO)cc2)O[C@@H]1c1ccccc1CN=[N+]=[N-]"
result = 0.196

[[record]]
compound = "CC(C)CNC(=O)[C@@]1(C)c2ccccc2C(=O)N(Cc2ccccc2)[C@H]1c1ccc(CO)cc1"
result = 0.11

[[record]]
compound = "CC(C)NC(=O)[C@@H]1c2ccccc2C(=O)N(Cc2cc(C(F)(F)F)cc(C(F)(F)F)c2)[C@H]1c1ccc(CO)cc1"
result = -0.167

[[record]]
compound = "COc1ccc([Si](C)(C)[C@@H]2[C@@H](CC(=O)N3Cc4ccccc4C[C@H]3CO)O[C@]3(C(=O)N(Cc4cccc(N5CCCCC5=O)c4)c4ccccc43)[C@H]2C)cc1"
result = 0.297

[[record]]
compound = "C=C(CCCC)/C(=C/C[C@H](OC(=O)c1ccncc1)c1ccc(CO)o1)c1cc(C(=O)OC)ccc1OC"
result = -0.247


Data origin: PubChem BioAssay
